# merged literature set: IC50 with Epidermal growth factor receptor (Homo sapiens, UniProt P00533)

O=C1Nc2ccccc2/C1=C/c1cc(Br)cs1 = > 100 µM
COc1cc(Nc2ccnc3cc(Cl)ccc23)ccc1-c1nc2ccccc2s1 = > 10 µM
COc1cc2c(Oc3ccc(NC(=O)NS(=O)(=O)Cc4ccc(F)cc4)cc3F)ccnc2cc1OCCCN1CCCC1 = > 10 µM
CC(C)S(=O)(=O)c1ccccc1Nc1nc(Nc2ccc3c(NC(=O)CN4CCCC4)n[nH]c3c2)ncc1Cl = > 1 µM

stdin: Specify the recorded IC50 for Cc1cc(Nc2cc(Nc3ccc(-c4nc5ccccc5s4)cc3)ccn2)[nH]n1 , system: Epidermal growth factor receptor (Homo sapiens, UniProt P00533).
stdout: > 10 µM

stdin: Specify the recorded IC50 for CCN(C)C1CN(C2CCN(c3cc(OC)c(Nc4ncc(Br)c(Nc5ccc6c(c5P(C)(C)=O)OCCO6)n4)cc3C)CC2)C1 , system: Epidermal growth factor receptor (Homo sapiens, UniProt P00533).
stdout: > 0.5 µM

stdin: Specify the recorded IC50 for Cc1c(CCC(=O)O)c[nH]c1/C=C1\C(=O)Nc2ccc(C(=O)O)cc21 , system: Epidermal growth factor receptor (Homo sapiens, UniProt P00533).
stdout: > 100 µM

stdin: Specify the recorded IC50 for CCS(=O)(=O)n1cc2c3ccc(cc31)OCCCCCCOc1cc(c(C3CCCC3)cc1N1CCOCC1)Nc1ncc(Cl)c-2n1 , system: Epidermal growth factor receptor (Homo sapiens, UniProt P00533).
stdout: > 1 µM

stdin: Specify the recorded IC50 for COc1cc2c(Nc3ccc(NC(=O)c4cccc(Cl)c4)cc3)ncnc2cc1OCc1ccccc1 , system: Epidermal growth factor receptor (Homo sapiens, UniProt P00533).
stdout: > 10 µM
